All figures here come from ChEMBL document CHEMBL5360575.

# System: BEAS-2B
# protocol details: Cytotoxicity against human BEAS-2B cells assessed as reduction in cell viability
# Type: toxicity, cell-based
assay readout: CC50

Documented CC50 of CC(C)C[C@H](NC(=O)OCc1ccccc1)C(=O)N[C@@H](C[C@@H]1CCNC1=O)C(O)S(=O)(=O)O (stereo partly specified) : > 100 µM

Documented CC50 of CO[C@H]1C[C@@H](C(=O)N[C@H](C=O)C[C@@H]2CCNC2=O)N(C(=O)[C@@H](NC(=O)OC(C)(C)C)C(C)C)C1 : 3.6 µM

Documented CC50 of CC(C)[C@H](NC(=O)OC(C)(C)C)C(=O)N1C[C@@H]2CCC[C@@H]2[C@H]1C(=O)N[C@H](C=O)C[C@@H]1CCNC1=O : 28.4 µM

Documented CC50 of CC(C)[C@H](NC(=O)OC(C)(C)C)C(=O)N1CCC[C@H]1C(=O)N[C@H](C=O)C[C@@H]1CCNC1=O : 17.9 µM

Documented CC50 of CC(C)[C@H](NC(=O)OC(C)(C)C)C(=O)N1C[C@H](OC(C)(C)C)C[C@H]1C(=O)N[C@H](C=O)C[C@@H]1CCNC1=O : 48.2 µM

Documented CC50 of CC(C)C[C@H](NC(=O)[C@@H](NC(=O)OC(C)(C)C)C(C)C)C(=O)N[C@H](C=O)C[C@@H]1CCNC1=O : 70.5 µM
